# Target Or Test System: mouse NaV1.7 (Mus musculus)
# Experiment Description: cell-based
# Condition Info: SEM
No end group written: not given here.
Measured Property: EC50 (nM)
All answers are understood in nM, so give the number only.

ALPALPLLMFLFTLPALQHWIEKNWIN-NH2 [Pm2a]    102

We now examine a further substance.
What value of EC50 has been recorded for this entry: GLPLLALLFSLPVLQHWIEKNWIN-NH2 [Pm1a]
352

###

Some substances, each annotated with its measured EC50.
# Target Or Test System: human NaV1.9 (Homo sapiens, UniProt Q9UI33)
# Experiment Description: cell-based
No end group written: not given here.

GLPLLALLFSLPVLQHWIEKNWIN-NH2 [Pm1a]    > 1000 nM

We now examine a further substance.
What value of EC50 has been recorded for this entry: ALPALPLLMFLFTLPALQHWIEKNWIN-NH2 [Pm2a]
< 1000 nM

###

# Target Or Test System: human NaV1.8 (Homo sapiens)
# Sequence (Q9Y5Y9 whole entry): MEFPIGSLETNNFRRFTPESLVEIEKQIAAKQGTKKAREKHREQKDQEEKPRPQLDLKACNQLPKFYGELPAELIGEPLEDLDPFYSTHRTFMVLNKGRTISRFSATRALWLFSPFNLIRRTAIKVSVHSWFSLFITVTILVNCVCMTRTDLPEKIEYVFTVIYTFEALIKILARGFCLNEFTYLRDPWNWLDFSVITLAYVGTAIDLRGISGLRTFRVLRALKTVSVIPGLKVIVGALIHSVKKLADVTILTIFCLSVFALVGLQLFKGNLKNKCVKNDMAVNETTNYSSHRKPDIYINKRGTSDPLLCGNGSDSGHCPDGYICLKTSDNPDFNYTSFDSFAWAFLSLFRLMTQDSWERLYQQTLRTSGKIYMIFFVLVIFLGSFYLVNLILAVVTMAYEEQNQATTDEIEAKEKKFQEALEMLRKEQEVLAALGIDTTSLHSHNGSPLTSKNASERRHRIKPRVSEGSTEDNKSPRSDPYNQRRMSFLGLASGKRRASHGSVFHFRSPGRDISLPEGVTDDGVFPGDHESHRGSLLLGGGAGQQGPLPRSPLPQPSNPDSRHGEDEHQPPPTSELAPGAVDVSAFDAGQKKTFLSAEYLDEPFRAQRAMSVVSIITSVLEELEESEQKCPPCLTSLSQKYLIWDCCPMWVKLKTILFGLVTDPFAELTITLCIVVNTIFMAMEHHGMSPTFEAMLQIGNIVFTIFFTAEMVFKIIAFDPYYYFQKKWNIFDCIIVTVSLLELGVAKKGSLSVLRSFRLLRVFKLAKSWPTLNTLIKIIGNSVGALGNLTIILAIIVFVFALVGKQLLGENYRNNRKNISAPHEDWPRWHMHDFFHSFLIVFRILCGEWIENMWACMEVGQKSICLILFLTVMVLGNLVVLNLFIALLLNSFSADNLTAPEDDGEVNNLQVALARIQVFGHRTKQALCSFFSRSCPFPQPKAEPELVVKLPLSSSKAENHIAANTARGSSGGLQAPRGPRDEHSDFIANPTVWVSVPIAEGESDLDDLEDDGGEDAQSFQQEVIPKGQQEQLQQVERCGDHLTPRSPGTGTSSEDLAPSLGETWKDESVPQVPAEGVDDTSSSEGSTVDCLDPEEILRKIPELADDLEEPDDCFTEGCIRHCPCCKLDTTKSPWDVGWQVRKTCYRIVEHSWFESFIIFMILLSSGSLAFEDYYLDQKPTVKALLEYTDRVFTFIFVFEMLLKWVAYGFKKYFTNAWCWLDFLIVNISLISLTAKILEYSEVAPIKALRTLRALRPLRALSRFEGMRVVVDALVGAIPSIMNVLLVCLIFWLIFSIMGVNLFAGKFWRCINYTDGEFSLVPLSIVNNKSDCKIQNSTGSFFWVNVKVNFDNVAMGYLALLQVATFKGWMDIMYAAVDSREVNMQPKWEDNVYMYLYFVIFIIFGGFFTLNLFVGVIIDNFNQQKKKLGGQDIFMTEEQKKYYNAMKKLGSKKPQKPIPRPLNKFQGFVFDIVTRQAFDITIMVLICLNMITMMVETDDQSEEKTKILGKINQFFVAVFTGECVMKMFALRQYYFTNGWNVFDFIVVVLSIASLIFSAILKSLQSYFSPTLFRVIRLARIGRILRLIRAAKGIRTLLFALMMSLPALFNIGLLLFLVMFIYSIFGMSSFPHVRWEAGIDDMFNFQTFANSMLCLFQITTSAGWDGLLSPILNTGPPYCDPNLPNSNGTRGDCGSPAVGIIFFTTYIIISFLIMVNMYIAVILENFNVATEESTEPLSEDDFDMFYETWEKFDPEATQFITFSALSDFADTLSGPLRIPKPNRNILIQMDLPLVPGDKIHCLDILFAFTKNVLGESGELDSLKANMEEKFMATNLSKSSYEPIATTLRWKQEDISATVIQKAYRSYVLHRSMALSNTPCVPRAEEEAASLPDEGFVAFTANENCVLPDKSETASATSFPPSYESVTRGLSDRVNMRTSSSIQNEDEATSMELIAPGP
# Experiment Description: cell-based
pEC50: −log10 of the molar value. No end group written: not given here.
Measured Property: pEC50

What value of pEC50 has been recorded for this entry: GLPLLALLFSLPVLQHWIEKNWIN-NH2 [Pm1a]
< 5.00

###

Some substances, each annotated with its measured EC50.
# Target Or Test System: human NaV1.6 (Homo sapiens, UniProt Q9UQD0)
# Sequence (Q07699 19-218): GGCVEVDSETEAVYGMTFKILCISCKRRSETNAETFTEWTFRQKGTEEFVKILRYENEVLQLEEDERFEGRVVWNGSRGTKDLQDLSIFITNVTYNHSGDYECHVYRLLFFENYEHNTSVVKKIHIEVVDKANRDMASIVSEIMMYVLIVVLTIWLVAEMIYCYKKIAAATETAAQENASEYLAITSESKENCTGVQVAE
# Sequence (Q9UQD0 whole entry): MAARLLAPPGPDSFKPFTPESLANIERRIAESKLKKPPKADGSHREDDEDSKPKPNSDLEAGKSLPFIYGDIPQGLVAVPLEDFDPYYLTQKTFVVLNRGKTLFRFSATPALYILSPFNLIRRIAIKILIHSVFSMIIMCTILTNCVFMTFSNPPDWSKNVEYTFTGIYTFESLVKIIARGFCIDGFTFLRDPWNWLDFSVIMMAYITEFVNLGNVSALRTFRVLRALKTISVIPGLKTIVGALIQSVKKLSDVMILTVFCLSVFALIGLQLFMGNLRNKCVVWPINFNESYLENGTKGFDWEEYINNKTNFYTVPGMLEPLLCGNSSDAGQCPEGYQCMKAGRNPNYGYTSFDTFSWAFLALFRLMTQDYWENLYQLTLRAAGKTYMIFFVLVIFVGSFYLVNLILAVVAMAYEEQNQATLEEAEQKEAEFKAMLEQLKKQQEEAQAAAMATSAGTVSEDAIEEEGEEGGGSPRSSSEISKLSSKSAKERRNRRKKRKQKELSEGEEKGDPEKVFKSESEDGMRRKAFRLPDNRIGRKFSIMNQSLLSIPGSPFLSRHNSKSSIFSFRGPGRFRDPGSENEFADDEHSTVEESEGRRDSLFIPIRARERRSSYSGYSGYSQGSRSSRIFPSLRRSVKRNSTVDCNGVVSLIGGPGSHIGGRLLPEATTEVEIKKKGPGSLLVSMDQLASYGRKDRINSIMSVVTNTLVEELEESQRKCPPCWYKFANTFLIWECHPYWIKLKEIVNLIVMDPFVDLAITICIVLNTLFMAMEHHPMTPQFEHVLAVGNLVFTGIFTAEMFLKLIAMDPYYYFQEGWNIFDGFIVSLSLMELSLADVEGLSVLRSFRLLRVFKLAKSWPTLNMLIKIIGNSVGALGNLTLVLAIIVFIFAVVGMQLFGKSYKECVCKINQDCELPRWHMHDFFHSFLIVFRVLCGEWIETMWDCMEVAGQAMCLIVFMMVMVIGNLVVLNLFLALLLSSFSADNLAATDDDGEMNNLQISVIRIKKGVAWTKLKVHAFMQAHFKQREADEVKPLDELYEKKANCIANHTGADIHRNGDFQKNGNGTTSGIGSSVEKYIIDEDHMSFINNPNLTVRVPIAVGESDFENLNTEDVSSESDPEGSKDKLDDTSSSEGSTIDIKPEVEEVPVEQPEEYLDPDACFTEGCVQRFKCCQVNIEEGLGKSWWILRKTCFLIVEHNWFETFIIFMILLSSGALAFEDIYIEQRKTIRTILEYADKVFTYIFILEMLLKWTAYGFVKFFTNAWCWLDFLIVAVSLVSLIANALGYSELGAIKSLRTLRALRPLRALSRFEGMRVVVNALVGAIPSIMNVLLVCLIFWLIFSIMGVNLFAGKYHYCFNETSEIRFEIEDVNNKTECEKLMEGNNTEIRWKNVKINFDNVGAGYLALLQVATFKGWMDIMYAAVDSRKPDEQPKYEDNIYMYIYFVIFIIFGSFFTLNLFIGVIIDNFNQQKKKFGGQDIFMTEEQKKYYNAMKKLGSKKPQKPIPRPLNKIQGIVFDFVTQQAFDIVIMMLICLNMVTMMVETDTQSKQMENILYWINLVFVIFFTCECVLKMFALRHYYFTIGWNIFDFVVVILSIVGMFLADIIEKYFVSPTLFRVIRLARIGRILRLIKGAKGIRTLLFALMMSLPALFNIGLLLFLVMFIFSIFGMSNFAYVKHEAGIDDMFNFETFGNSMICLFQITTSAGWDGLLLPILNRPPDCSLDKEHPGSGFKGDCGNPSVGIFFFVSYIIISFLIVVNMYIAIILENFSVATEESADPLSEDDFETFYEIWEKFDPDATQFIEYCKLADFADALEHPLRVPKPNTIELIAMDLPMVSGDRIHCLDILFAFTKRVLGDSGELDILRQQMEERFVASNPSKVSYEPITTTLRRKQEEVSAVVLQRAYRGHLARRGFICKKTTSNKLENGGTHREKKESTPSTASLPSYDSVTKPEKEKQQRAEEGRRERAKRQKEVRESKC
# Experiment Description: cell-based
# Condition Info: SEM
No end group written: not given here.
All answers are understood in nM, so give the number only.

ALPALPLLMFLFTLPALQHWIEKNWIN-NH2 [Pm2a]    176

We now examine a further substance.
What value of EC50 has been recorded for this entry: GLPLLALLFSLPVLQHWIEKNWIN-NH2 [Pm1a]
285
